Where do these numbers come from? They come from the supplement of paper PMC10567573.

- assay.summary: protein stability index of a GFP-peptide fusion (GPS, HEK-293T) (PSI 1-6); higher = more stable;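 also: 24-mer peptide tiles fused after GFP, lentivirally expressed, FACS-sorted into six equal bins by GFP/DsRed ratio, decoded by Illumina sequencing, PSI is the read-weighted mean bin number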
- condition.description: treatment: DMSO; c terminus: a fixed tail appended
Each record here notes measured protein stability index.

Solved cases (4 shown):
{"sequence.string": "YDPKTNQWSSDVAPTSTCRTSVGV [KLHL20]", "observed.result": 2.86}
{"sequence.string": "QLIEEGYVGEPLVCEVQVHGGSLL [GFOD1]", "observed.result": 2.44}
{"sequence.string": "LALSPDLSLSNATVLTRSLFLGRI [FANCE]", "observed.result": 2.35}
{"sequence.string": "NAYHIERLMSFRPICSANHKESKM [CRYBA1]", "observed.result": 3.12}

I am curious: what protein stability index value has been reported for FQQDTKGLVDFRDVALALAALDGG [LPCAT4] ? 2.48

Also, PPLPGKALKRQLPFRGDEGIFEES [SNX12] please. 4.59

Now the sequence NTTCQTENRLSVFFSVIFMTVGIL [PTGFR] 2.39

Likewise for ALGNEGDTFHQDNQPSGLIRTYLG [RHOBTB3] ? 3.48

Try the sequence SFHSSGEKQKQPRWREGTKDSHDP [PBXIP1] 5.08

One more sequence: MEHALREKAKAFWAMRRSYEAIAK [TRIM35] 2.46

Another: TTSEEAVGGATPDQTTSEETVGGA [HDAC6] 5.5

Now consider FTTLTDRELEEYRREVERKQKGSE [ADD1] . 4.53

And the next one, EEENPGGCEDEYLVNPTCQVLVKD [ZER1] ? 5.54

Moving on to the next sequence: MVQVACGASHVLALSTERELFAWG [NEK8] 2.59

Try this sequence next: FVLNAAQCSMPLHVAPLLAAAGLH [NR2F2] 3.13

# iterate: PSSLNSPSSYNCSQSILPLEHGSI [ESR2] 3.15

What do you have for SRAEPIRTTVFQYPVGWPPVQELP [ZMAT5] ? 2.38

Now the sequence PQLAGKWQVLCMLSLCCWGWVSGQ [PCDHGC5] 2.88

One more sequence: DVAVHMPCLGHTFNAGIQQAFQLP [ZBED1] 2.53
